Each recorded value in this set is attributed to patent US20050164945A1.

This section presents binders with their documented Ki values.
Molecular target: T1, recombinant endotheliase 1 (human), Q9UL52
T1 chain: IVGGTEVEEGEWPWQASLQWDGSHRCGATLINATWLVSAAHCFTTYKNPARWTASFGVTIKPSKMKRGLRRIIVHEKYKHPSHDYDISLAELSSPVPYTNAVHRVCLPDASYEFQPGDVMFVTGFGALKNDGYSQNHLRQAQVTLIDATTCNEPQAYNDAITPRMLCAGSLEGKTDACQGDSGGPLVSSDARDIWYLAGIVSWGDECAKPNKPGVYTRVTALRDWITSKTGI
Experiment: inhibition of ET1 activity

| Binder | Ki |
| --- | --- |
| AGVQHCESRDLPCLIKGT (modifications not checked) [DX-1051] | 100 to 1000 nM |

Please turn your attention to the following entry.
[ask] Which Ki value is on record for AGWPTCRGFWPDCGMMGT (modifications not checked) [DX-1135] ?
[reply] 100 to 1000 nM
